assayed system: MAL^TIR (Homo sapiens, UniProt P58753)
Construct: MAL (residues 79–221); 6xHis; made in house; host or cells: E. coli BL21 (DE3)
Sequence (P58753 79-221): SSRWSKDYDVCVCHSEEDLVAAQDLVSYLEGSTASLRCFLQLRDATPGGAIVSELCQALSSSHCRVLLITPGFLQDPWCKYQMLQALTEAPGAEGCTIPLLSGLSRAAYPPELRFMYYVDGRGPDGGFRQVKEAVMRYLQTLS
test protocol: T‐Surf phage library (P8 and P3) selection against MAL^TIR, four rounds, NGS read counts
Assay type: binding
run parameters: P8 library, 4R selection against MAL, rank before grouping
Procedure: T‐Surf libraries were screened against the immobilized TIR domains of two major human TLR adaptor proteins, MAL^TIR and MyD88^TIR, allowing cross‐species selection of TIR‐binding motifs with 190 946 TIR‐derived peptides in a single binding assay (Scheme 1). Enriched phage pools from the fourth round of selection were analyzed using NGS after barcoding the peptide‐coding regions of the phage pools. […]
property label: P8_MAL Rank (before)

>>> value_reported("AFFWEHLRPLLGKQAM")
1711
>>> value_reported("LFFWECLKKLLRRDGR")
2071
>>> value_reported("AFFRDQLRTVLGKPTM")
1751
>>> value_reported("RDFVAYLCQALANKGI")
2172
>>> value_reported("TFLGHLYNALVQAGIRAFL")
2579
>>> value_reported("TFLGHLYNTLVQPAIH")
2596
>>> value_reported("AFFCTHLKSVLDNPTM")
1589
>>> value_reported("YFLQVRLFNLLESDDR")
1514
>>> value_reported("YFLHLLLFSRPETVYI")
1508
>>> value_reported("DTILKKGEGIAPELLR")
1999
>>> value_reported("TFLGHLYNSLVQAGTH")
2563
>>> value_reported("AFLYTFLIILPIRPNF")
1835
>>> value_reported("QLIQQWSELHLLQLHL")
2387
>>> value_reported("LFFYESLKHLLRIDCR")
2170
>>> value_reported("RNNFLGYLYQALYRIG")
2263
>>> value_reported("AFLYNFLLNLTHKPTF")
1891
>>> value_reported("DTRYTFIAHLSHALNL")
2040
>>> value_reported("LFFWESLKQLLRTVLGKPTM")
2109
>>> value_reported("HFWWIPLKSILGETSF")
2423
>>> value_reported("AFLDPFLINLIQASIL")
1968
